B1: TMEM59 peptide (residues 268–280), wild type [modified: long spacer (Tds) at the N-terminal end, used for immobilisation; long spacer (Tds) at the N-terminal end, used for immobilisation] [not stated] / GST-HA-ATG16L1(231–607) … (parent)
chain 1: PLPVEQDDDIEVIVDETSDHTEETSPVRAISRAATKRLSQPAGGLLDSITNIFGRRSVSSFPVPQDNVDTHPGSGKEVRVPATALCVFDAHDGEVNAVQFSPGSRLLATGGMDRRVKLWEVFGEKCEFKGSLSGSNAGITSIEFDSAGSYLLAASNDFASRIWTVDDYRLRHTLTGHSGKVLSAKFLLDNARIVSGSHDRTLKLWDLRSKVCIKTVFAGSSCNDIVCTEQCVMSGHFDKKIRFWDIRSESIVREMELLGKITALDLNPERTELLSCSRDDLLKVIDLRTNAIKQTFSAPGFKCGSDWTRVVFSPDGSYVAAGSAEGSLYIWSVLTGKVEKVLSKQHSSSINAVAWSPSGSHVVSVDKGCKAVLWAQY
chain 2: YVPSEKLSIYGDL

Variants of: B1
assay: peptide microarray
condition: with GST-HA-ATG16L1(231–607) [human]; ligand 800, 600, 400 nM; parent: 100
percent of parent vs 40 % WT: at or above is rule met, below is rule not met.

Answered cases to consult:
chain 2 Y1N	rule not met
chain 2 L7F	rule met
chain 2 L13H	rule met
chain 2 S4M	rule not met
chain 2 I9R	rule met

Reported percent of parent reaches at least 40 % WT for chain 2 E5I ?
rule not met

Determine whether measured percent of parent meets or exceeds 40 % WT for chain 2 K6I
rule met

Could you please find out whether chain 2 L7A has percent of parent that meets 40 % WT or exceeds it?
rule met

Confirm if percent of parent reported for the variant chain 2 S8R is 40 % WT or above.
rule met

Threshold query (percent of parent >= 40 % WT) on chain 2 S4H
rule met

Can chain 2 D12A be said to have percent of parent at or above 40 % WT?
rule met

Is it the case that chain 2 I9Q has percent of parent reaching or exceeding 40 % WT?
rule met

# bool: percent of parent of chain 2 L7T >= 40 % WT
rule met
